measurement protocol: folding stability dG unfold (combined trypsin and chymotrypsin); higher = more stable

primary sequence	value unit	result operator	folding stability dG unfold
SAGGSAPDWKIVDIEPTDNSITITVEAPPGVRVMIFNPGNGKVQHRPFPPGDTITIPPRMYIMVWVSAGGSA [r15_418_TrROS]	kcal/mol	=	2.84
SAGGSAGGSAGMKVVVELEVTFDSEEEAEAVAKAIAEELGSEDVVVKVIRKPVELGPGLKSAGGSAGGSAGG [r17_285_JUSTAS]	kcal/mol	=	0.656
SAGGSAMLPDEVTVKPVEMPVPPDLTLEELEQEVRERAGPGTSVEVSYDPATGVATVTVTDARPALSAGGSA [r15_749_JUSTAS]	kcal/mol	=	1.03
SAGGSAGGSAAGFTAPVVQVRTENGKIYIDVKNSSVSLTVPENAEITPLESEVVKITPLPAPSAGGSAGGSA [r18_468_JUSTAS]	kcal/mol	=	0.00621
SAGTLVLVIEVPLEDVTPEQAEEIAEEAARFLREAGLPEGIEVEDVRVERLPDGRLLVLLPMRILEDESAGG [r19_87_TrMRF]	kcal/mol	=	2.41
MKAHVTVVDLEDRYRARIELELPDGRVLVFEFEFDSWEEAIEFIRGLIAALPEDEVEIDHIEFLPPDGDPSS [r1_169_TrMRF]	kcal/mol	=	4.46
SAGGSAGGSAGGSKKKIKIYIENENGEKKTIEIEVEGDIDEIAKELAKKYNVKIVKIEPSAGGSAGGSAGGS [r4_412_TrROS_Hall]	kcal/mol	=	3.05
SAGSSSSLPNVLVVTLYLPDAPLPIVLPVDTPEDVELAKERVKEIEKELEELGLPVNVEFKYYPPGFPVSAG [r5_823_TrMRF]	kcal/mol	=	0.194
SAGGSLIEKIAKEAGIKVEISKEETNGSPVLTITITKGDKNIVFKDDGKDPEKLVKELAKKIGIKPISAGGS [r8_226_JUSTAS]	kcal/mol	=	0.422
SAGGSAGGSAGMKVTVTITYPGGKVTTLDGDPEEVKAALPSSLTDVKITVTDPATGKVAASAGGSAGGSAGG [r11_353_JUSTAS]	kcal/mol	=	0.635
SAGGSAGGSAGGSMRYDIVEDPETGTVTINRYVVYPPGIEKKTEGEIVPASTVPPGDLLGSAGGSAGGSAGG [r7_455_JUSTAS]	kcal/mol	<	-1
SAGGSMKVEYDESTGVTTITLPDGSTITFPAEDTGLTVEASLEDDTLTITVKDPNNPVPLETRTIPSSSAGG [r13_938_JUSTAS]	kcal/mol	=	0.393
SAGGSAGGSWGTISIRIEFNFMAFDPGLGQFSMFPMEVYISIPIEIPPPPPPPKPKYDNGKPKSAGGSAGGS [r12_140_TrROS]	kcal/mol	=	3.78
SAPPATLTVDSVEFHPETGTLTIPFSHPAGPTASVLFRNEDGEVLEIPGTVPTATIRAEPNMRLERVFLGSA [r9_113_TrMRF]	kcal/mol	=	-0.0386
SAGGSAGGSAGSTALVETREFEDGTVVERVEVTLPNGEVLERTVVLTRDEAGNVVEEEVESAGGSAGGSAGG [r11_709_JUSTAS]	kcal/mol	=	0.958
SAGGSAGGSVVPIEYDEDGMLKIEHRNNDKKREHTIPADDADEMPPDFLKDLPPDKIDEITPYSAGGSAGGS [r12_793_TrROS]	kcal/mol	<	-1
SAGGPKVVKGKKVEKVELEVGKLPDGVELVKVKVRSKEVDKEFTFTFEPGQDLGEFGKATGFDIGVESAGGS [r16_676_TrMRF]	kcal/mol	=	0.14
SAGGSAGGSAEPPRYLVIELEVERSPEEIAEELRRRLGIERVEVEYDPETERLRVRVVVRLPSAGGSAGGSA [r18_275_TrROS_Hall]	kcal/mol	=	2.88
SAGGSAGGSMYRYTVTFPNTGTVLEKEFESLEEAKKYIPKDRPIKEIKVEPVEPPVSPEVLLVSAGGSAGGS [r12_851_JUSTAS]	kcal/mol	=	-0.651
SAMIVTEKEDPATNTTLVTTTEIYPDSITVTTTTITKSGEILTESPSTTTIPLGSPLGPENKAKNIALSSAG [r14_930_JUSTAS]	kcal/mol	<	-1
SAGGSAGGSAGMPLTVLGTEEIGDSTTVTTKDPTSDELYRKTYTNGAVSSTEIVPASELGSAGGSAGGSAGG [r11_19_JUSTAS]	kcal/mol	=	0.217
SAGKTVTKTKTEYEYKDGKLEKKKVKTETIEPKPKIEVKEVKITLKDGSEVTAKIVSIDPKTKKVVIELSAG [r5_735_TrROS_Hall]	kcal/mol	=	0.0452
SAPPPVQTLTLTVYDPETGRLVKIEVTRRPDGTLEVRVEVVDLETNEVTTETITLPGLTLDELLKLLEEASA [r9_618_TrROS_Hall]	kcal/mol	=	3.65
SAGGSAGGEKTASFKVKGNLVAKGVTTFYSPTSDEYTIETEIEKVPPGPKPEITPEEIAKNYLLSAGGSAGG [r6_148_JUSTAS]	kcal/mol	<	-1
SAGGMVIEKDGDYEYVLLLVDSPEGFPVEVAKELLKKEFGLKEIKVLSAKPLPNGIRLVLVKNKFEKSAGGS [r16_234_TrMRF]	kcal/mol	=	1.3
SAMPLSELEFVEERVFPDPPVRISVYRLPSPGVWVVPVLEPGTGRPRLVELEAADGVLDEEEVRAAVLESAG [r14_948_JUSTAS]	kcal/mol	<	-1
SAGMVITVPSDVPVEELLELARELARELGGGRVEVRTHPDNPEIVTATIDIPGTGKRILIINAPPGVLASAG [r5_912_TrMRF]	kcal/mol	=	2.52
